Biological target: recombinant human MAO-A (monoamine oxidase-A) (Homo sapiens)
Construct: purchased Sigma-Aldrich
Sequence (P21397 whole entry): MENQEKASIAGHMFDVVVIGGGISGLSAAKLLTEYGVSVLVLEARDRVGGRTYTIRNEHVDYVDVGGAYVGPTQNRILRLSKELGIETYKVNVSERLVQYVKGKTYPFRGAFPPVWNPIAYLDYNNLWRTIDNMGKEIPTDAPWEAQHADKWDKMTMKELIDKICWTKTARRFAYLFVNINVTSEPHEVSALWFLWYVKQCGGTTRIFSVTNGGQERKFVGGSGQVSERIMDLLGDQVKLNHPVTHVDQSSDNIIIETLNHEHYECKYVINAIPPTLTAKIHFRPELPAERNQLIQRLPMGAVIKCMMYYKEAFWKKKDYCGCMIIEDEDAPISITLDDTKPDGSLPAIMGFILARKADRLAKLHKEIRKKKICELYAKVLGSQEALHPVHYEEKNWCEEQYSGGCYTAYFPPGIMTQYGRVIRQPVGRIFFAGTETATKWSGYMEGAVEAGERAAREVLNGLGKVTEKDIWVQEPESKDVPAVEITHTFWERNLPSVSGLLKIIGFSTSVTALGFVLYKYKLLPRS
Assay: Activity on recombinant human MAO-A, Amplex Red method, 0.5 mM tyramine substrate
Format: biochemical
Conditions: 0.5 mM tyramine, read-out: Inhibitory Activity (IC50, nM) MAO-A
Structures can show the parent of a compound that is named as a salt.
Measured Endpoint: IC50

| Compound | IC50 |
| --- | --- |
| CC(=O)Nc1ccc(-c2cccc(-c3cccc(-n4cnn(C/C(=C/F)CN)c4=O)c3)c2)cc1 [Example 69, hydrochloride] | 4910 nM |
| NC/C(=C\F)Cn1ncn(-c2ncc(Br)s2)c1=O [Example 41, hydrochloride] | 780 nM |
| Cc1cc(-c2ccc(N3CCOCC3)nc2)ncc1-n1cnn(C/C(=C/F)CN)c1=O | > 100000 nM |
| CN(C)S(=O)(=O)c1ccc(-c2cccc(-n3cnn(C/C(=C/F)CN)c3=O)c2)cc1 [Example 55, hydrochloride] | > 100000 nM |

Ask: Could you tell me which IC50 is on file for NC/C(=C\F)Cn1ncn(-c2cccc(-c3ccc4nonc4c3)c2)c1=O [Example 96, hydrochloride] ?
Reply: > 100000 nM

Ask: Repeat for the following compound: `NC/C(=C/F)Cn1ncn(-c2ccc(F)cc2)c1=O`
Reply: 1600 nM

Ask: Repeat for the following compound: COc1ncc(-c2cccc(-n3cnn(C/C(=C/F)CN)c3=O)c2)cc1C(F)(F)F [Example 87, hydrochloride]
Reply: > 100000 nM

Ask: Repeat for the following compound: CC(=O)c1ccc(-c2cccc(-n3cnn(C/C(=C/F)CN)c3=O)c2)s1 [Example 49, hydrochloride]
Reply: > 100000 nM
